Values compiled from patent US20240343803A1.

The following binders are listed with their measured EC50 values.
# measured-target: T1, Fusion protein of extracellular domain of human TIGIT and mouse IgG2a Fc fragment (human TIGIT ECD-mFc) (human)
# T1 construct: The entry includes the signal peptide (limits not recoverable) and the mouse IgG2a Fc
# T1 chain: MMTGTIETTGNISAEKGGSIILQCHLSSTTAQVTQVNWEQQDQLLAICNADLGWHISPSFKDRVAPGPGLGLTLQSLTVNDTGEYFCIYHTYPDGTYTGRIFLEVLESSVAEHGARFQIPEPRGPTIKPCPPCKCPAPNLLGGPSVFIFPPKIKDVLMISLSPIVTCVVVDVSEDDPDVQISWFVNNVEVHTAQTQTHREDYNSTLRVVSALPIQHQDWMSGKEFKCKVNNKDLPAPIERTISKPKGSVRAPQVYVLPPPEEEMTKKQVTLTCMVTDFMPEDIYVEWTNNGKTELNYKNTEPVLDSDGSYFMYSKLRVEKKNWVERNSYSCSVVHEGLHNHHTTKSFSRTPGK
# procedure-summary: ELISA, human TIGIT ECD-mFc
State the answer as a number, implicitly in nM.

Sample answers from the record:
TIGIT-006-H5L3 (antibody, V domains shown, Humanized anti-TIGIT antibody) VH: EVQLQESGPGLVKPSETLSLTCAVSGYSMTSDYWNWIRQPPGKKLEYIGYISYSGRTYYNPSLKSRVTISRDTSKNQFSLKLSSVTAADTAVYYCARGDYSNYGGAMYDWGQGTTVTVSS VL: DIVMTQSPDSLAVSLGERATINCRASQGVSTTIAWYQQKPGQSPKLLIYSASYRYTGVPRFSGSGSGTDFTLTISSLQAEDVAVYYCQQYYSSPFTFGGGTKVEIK    0.0319
TIGIT-070-H1L1 (antibody, V domains shown, Humanized anti-TIGIT antibody) VH: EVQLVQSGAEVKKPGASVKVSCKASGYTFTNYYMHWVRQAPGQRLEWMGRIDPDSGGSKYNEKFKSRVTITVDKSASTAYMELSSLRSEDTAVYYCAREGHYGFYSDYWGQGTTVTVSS VL: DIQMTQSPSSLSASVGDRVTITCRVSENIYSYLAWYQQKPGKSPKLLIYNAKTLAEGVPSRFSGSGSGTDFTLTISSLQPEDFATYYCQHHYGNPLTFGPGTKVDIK    0.0284
TIGIT-002-H4L3 (antibody, V domains shown, Humanized anti-TIGIT antibody) VH: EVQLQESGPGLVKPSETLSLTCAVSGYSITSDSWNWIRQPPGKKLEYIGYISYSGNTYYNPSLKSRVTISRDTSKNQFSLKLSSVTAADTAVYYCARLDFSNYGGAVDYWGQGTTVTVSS VL: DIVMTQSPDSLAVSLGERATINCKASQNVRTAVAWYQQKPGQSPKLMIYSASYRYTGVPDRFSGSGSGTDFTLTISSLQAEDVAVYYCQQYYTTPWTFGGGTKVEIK    0.037

// next entry
Q: Which value of EC50 has been reported for TIGIT-005-H2L1d (antibody, V domains shown, Humanized anti-TIGIT antibody with NG-site mutation in VL) VH: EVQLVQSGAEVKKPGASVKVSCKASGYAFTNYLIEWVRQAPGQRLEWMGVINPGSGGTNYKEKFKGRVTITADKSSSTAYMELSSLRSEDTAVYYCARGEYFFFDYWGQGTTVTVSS VL: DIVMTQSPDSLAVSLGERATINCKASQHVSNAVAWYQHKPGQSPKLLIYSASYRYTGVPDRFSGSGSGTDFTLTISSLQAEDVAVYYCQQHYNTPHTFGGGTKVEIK in the records?
Ans: 0.0311
